test system: human plasma; assay: Chemical stability in plasma over the UC assay time course (T5hr/T1hr); settings: mean T5hr/T1hr ratio in plasma over all replicates/runs
quantity name: Mean Stability
I'd appreciate a reply containing only the number, no unit.

compound	Mean Stability
OCCC(F)(F)C(F)(F)C(F)(F)C(F)(F)C(F)(F)C(F)(F)C(F)(F)C(F)(F)F	0.814
FC(F)(I)C(F)(F)C(F)(F)C(F)(F)C(F)(F)C(F)(F)I	0.718
FC(F)(F)C(F)(F)CNCC(F)(F)C(F)(F)F	0.799
OCCC(F)(F)C(F)(F)C(F)(F)C(F)(F)F	0.740
FC(F)(F)C(F)(F)C(F)(F)C(F)(F)CCI [1H,1H,2H,2H-Perfluorohexyl iodide]	0.517
FC(F)(I)C(F)(F)C(F)(F)C(F)(F)I	0.740

## Input I have this compound here, FC(F)(Br)C(F)(F)C(F)(F)C(F)(F)C(F)(F)C(F)(F)Br , and I need its recorded Mean Stability.
## Output 0.415

## Input Fill in the blank: the reported Mean Stability of NCC(F)(F)C(F)(F)C(F)(F)C(F)(F)C(F)(F)C(F)(F)C(F)(F)F is ____.
## Output 0.577

====

Assay: Abiotic loss in negative controls of the hepatocyte clearance assay (cell-free media, metabolically inactivated hepatocytes)
Assay type: in vitro ADME
Conditions: flag for stability failure in hepatocyte clearance assay controls (1 or Fst = fail, 0 = pass)
Description: The hepatic metabolic stability assay measures the loss of a parent compound over time in a substrate-depletion approach. […] At each time point, relevant plates were crashed with an equal volume of ice-cold acetonitrile, centrifuged, and supernatant transferred to a new plate prior to storage at <−70 °C until quantitative analysis. […]
quantity name: Hep_Stab_Fail

Examples with their reported Hep_Stab_Fail follow.
compound	quantity name	endpoint value
OCC(F)(F)C(F)(F)C(F)(F)C(F)(F)C(F)(F)C(F)(F)F	Hep_Stab_Fail	1
OCCCC(F)(F)C(F)(F)C(F)(F)C(F)(F)C(F)(F)C(F)(F)C(F)(F)C(F)(F)F	Hep_Stab_Fail	1
OCC(F)(F)C(F)(F)C(F)(F)C(F)F	Hep_Stab_Fail	1
OCCCCC(F)(F)C(F)(F)C(F)(F)C(F)(F)F	Hep_Stab_Fail	1
OCCCC(F)(F)C(F)(F)C(F)(F)F	Hep_Stab_Fail	1

## Input // query Hep_Stab_Fail value for entry NC(=O)C(F)(F)C(F)(F)C(F)(F)C(F)(F)C(F)(F)C(F)(F)C(F)(F)F [Perfluorooctanamide]
## Output 1

## Input Need Hep_Stab_Fail, item O=C(CC(=O)C(F)(F)C(F)(F)C(F)(F)F)c1cccs1
## Output Fst

## Input What value of measured Hep_Stab_Fail is listed for C=C(C)C(=O)OCC(F)(F)C(F)(F)C(F)(F)F [1H,1H-Perfluorobutyl methacrylate] ?
## Output 1

## Input Find the recorded Hep_Stab_Fail belonging to FC(F)(F)C(F)(F)C(F)(F)C(F)(F)C(F)(F)C(F)(F)C(F)(F)CCI and report it.
## Output Fst

## Input // query Hep_Stab_Fail value for entry NC(O)(C(F)(F)F)C(F)(F)F
## Output 1

## Input Which value of Hep_Stab_Fail has been reported for NCC(F)(F)C(F)(F)C(F)(F)C(F)(F)C(F)(F)C(F)(F)C(F)(F)F in the records?
## Output Fst

## Input // query Hep_Stab_Fail value for entry C=C(C)C(=O)OCCC(F)(F)C(F)(F)C(F)(F)C(F)(F)C(F)(C(F)(F)F)C(F)(F)F
## Output 1

## Input // query Hep_Stab_Fail value for entry C=C(C)C(=O)OCC(F)(F)C(F)(F)C(F)(F)C(F)(F)C(F)(F)C(F)(F)C(F)(F)F [1H,1H-Perfluorooctyl methacrylate]
## Output 1

## Input I'd like to know its Hep_Stab_Fail. The compound in question is OCC(F)(F)C(F)(F)C(F)(F)CO
## Output 0
